All values here come from patent US20260116991A1.

Target: biotinylated labeled human GPC3 protein (produced in-house) (human, UniProt P51654 25-559, limits assumed, biotinylated (Dojindo, Cat. No. LK03); sites not stated)
Assay: ELISA, biotinylated human GPC3 protein
Classification field: TRUE = OD450 at 66.66 nM at or over 2 OD450; FALSE = OD450 at 66.66 nM under 2 OD450.

* hAb006LH3L1a (antibody, human IgG1, V domains shown, Humanized F3.38.7; VH H3 + VL L1a; expressed as human IgG1) VH: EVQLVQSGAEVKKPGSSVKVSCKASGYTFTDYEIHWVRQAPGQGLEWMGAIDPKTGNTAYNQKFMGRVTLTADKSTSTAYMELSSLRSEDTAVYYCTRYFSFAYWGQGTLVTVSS VL: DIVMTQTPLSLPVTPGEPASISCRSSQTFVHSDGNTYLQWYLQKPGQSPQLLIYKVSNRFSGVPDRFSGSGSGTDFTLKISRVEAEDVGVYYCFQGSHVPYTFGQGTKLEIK | TRUE
* hAb007LH1L1 (antibody, human IgG1, V domains shown, Humanized F3.81.19; VH H1 + VL L1; expressed as human IgG1) VH: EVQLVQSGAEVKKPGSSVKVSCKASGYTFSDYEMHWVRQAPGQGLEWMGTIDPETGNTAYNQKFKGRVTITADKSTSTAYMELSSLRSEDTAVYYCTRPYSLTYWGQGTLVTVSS VL: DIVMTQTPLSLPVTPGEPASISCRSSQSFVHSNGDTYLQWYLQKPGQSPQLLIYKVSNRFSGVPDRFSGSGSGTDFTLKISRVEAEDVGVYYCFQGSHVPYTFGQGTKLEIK | TRUE
* hAb003LH1L1 (antibody, human IgG1, V domains shown, Humanized F2.154.1; VH H1 + VL L1; expressed as human IgG1) VH: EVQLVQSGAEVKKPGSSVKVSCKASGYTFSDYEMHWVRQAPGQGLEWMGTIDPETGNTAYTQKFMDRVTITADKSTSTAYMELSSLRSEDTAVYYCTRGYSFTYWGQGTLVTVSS VL: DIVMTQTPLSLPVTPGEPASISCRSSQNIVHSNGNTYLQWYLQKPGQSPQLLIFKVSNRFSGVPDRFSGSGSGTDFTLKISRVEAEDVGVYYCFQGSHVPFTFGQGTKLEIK | TRUE
* hAb005LH2L1a (antibody, human IgG1, V domains shown, Humanized F3.54.12; VH H2 + VL L1a; expressed as human IgG1) VH: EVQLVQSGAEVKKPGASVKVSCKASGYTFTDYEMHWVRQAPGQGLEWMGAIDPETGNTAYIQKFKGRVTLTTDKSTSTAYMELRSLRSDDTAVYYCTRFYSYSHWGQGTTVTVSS VL: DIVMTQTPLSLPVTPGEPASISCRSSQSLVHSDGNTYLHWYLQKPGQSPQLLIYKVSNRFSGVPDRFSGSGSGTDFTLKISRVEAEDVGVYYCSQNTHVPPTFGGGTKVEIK | FALSE
* hAb001H1aL1 (antibody, human IgG1, V domains shown, Humanized F2.169.2; VH H1a + VL L1; expressed as human IgG1) VH: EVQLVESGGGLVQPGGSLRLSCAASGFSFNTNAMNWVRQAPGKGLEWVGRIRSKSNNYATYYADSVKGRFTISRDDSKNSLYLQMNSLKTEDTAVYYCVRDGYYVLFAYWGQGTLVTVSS VL: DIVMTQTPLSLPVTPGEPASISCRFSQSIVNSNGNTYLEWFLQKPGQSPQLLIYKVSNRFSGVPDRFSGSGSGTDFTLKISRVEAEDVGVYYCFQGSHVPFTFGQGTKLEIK | TRUE

Query block: OD450 at 66.66 nM >= 2 OD450 for hAb007LH2L1a (antibody, human IgG1, V domains shown, Humanized F3.81.19; VH H2 + VL L1a; expressed as human IgG1) VH: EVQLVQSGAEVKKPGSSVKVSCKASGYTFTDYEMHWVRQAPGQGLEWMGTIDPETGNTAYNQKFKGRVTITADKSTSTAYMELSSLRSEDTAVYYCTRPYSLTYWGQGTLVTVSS VL: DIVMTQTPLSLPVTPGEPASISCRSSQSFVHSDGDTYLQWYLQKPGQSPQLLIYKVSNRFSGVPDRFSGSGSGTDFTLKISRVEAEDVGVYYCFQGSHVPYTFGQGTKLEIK ?
Result block: TRUE

Query block: Repeat for the following binder: hAb005LH1L1 (antibody, human IgG1, V domains shown, Humanized F3.54.12; VH H1 + VL L1; expressed as human IgG1) VH: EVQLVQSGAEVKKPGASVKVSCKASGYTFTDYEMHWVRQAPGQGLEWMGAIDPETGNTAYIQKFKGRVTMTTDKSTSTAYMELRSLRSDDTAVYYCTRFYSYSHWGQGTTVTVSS VL: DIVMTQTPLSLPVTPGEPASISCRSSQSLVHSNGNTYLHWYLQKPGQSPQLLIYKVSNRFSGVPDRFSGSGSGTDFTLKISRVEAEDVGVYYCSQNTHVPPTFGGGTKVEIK
Result block: FALSE

Query block: Repeat for the following binder: hAb003LH2L1b (antibody, human IgG1, V domains shown, Humanized F2.154.1; VH H2 + VL L1b; expressed as human IgG1) VH: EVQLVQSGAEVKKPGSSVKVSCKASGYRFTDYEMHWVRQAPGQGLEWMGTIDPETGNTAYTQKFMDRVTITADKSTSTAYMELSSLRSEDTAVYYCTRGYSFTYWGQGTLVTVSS VL: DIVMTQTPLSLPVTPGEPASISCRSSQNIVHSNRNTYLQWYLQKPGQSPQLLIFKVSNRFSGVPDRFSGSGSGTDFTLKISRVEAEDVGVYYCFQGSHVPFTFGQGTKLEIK
Result block: TRUE

Query block: Repeat for the following binder: hAb005LH2L1b (antibody, human IgG1, V domains shown, Humanized F3.54.12; VH H2 + VL L1b; expressed as human IgG1) VH: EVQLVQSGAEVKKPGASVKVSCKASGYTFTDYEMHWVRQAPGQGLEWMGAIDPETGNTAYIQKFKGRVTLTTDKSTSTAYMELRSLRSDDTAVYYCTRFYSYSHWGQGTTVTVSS VL: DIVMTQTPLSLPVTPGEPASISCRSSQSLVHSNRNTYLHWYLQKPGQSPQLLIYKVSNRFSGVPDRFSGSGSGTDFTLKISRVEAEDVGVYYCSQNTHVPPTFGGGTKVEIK
Result block: FALSE

Query block: Repeat for the following binder: hAb001H1L1 (antibody, human IgG1, V domains shown, Humanized F2.169.2; VH H1 + VL L1; expressed as human IgG1) VH: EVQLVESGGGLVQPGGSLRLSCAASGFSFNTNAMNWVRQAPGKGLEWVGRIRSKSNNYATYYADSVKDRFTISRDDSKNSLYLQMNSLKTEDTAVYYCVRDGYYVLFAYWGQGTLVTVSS VL: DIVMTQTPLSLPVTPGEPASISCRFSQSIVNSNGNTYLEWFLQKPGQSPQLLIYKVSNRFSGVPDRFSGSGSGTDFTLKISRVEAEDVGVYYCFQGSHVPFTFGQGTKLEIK
Result block: TRUE
